Test system: human SMAD7 mRNA
assay-notes: Dose-dependent inhibition of human SMAD7 mRNA expression in Hep3B cells (Example 3, Study 1 and 2)
Assay type: cell-based
setup-conditions: 20000.0 nM, electroporation, approximately 16 hours, Study 2
Strand notation (5' to 3'): a small letter for the sugar, then the base; units joined by * are phosphorothioate-linked, units joined directly phosphodiester-linked; [ ] holds rarer units or linkages, { } end groups; capitals alone tell only the bases. k = constrained ethyl (cEt); [5mC] = 5-methylcytosine; d = 2'-deoxy (DNA)
Please respond with reported % inhibition of SMAD7 mRNA expression for every item in the list.
Give bare numbers, in %.

800010 (kG*kT*kT*dA*dT*dT*dT*dA*dA*dT*dT*dA*d[5mC]*k[5mC]*k[5mC]*kT; antisense) [compound 800010] :: 59
830128 (antisense kA*k[5mC]*k[5mC]*dT*d[5mC]*d[5mC]*dG*dA*dG*dG*d[5mC]*dA*d[5mC]*k[5mC]*kA*k[5mC]) [compound 830128] :: 85

Pending substance:
Returns the measured % inhibition of SMAD7 mRNA expression for the input substance. Input: 799159 (antisense kG*kT*kG*dT*dA*dT*dG*dA*dG*dT*dT*dG*dT*kA*kG*kA) [compound 799159]
90

###

System: human SMAD7 mRNA
assay-notes: Antisense inhibition of human SMAD7 mRNA expression in Hep3B cells by 3-10-3 cEt gapmers, 10,000 nM, electroporation (Example 2)
Type: cell-based
setup-conditions: Hep3B cells, 10,000 nM antisense oligonucleotide, electroporation, approximately 24 hours, RT-PCR primer probe set RTS5062, relative to untreated control cells
Strand notation (5' to 3'): a small letter for the sugar, then the base; units joined by * are phosphorothioate-linked, units joined directly phosphodiester-linked; [ ] holds rarer units or linkages, { } end groups; capitals alone tell only the bases. k = constrained ethyl (cEt); [5mC] = 5-methylcytosine; d = 2'-deoxy (DNA)
property-name: % Inhibition (%)
Answers are plain numbers, in %.

798878 (k[5mC]*kT*kG*d[5mC]*dT*dG*d[5mC]*dA*dT*dA*dA*dA*d[5mC]*kT*k[5mC]*kG; antisense) [compound 798878] :: 49

Answer for every listed entry: what is its % Inhibition? The entries follow.
1. 799856 (kG*k[5mC]*kA*dA*dG*d[5mC]*d[5mC]*dA*dA*dG*dT*dG*dT*k[5mC]*k[5mC]*kA; antisense) [compound 799856]
2. 798890 (k[5mC]*kT*kT*d[5mC]*dA*d[5mC]*dA*dA*dA*dG*d[5mC]*dT*dG*kA*kT*k[5mC]; antisense) [compound 798890]
3. 800073 (antisense kT*kA*kA*dG*dT*dA*dG*dG*dA*dG*d[5mC]*d[5mC]*dA*kG*k[5mC]*kG) [compound 800073]
4. 798822 (kG*kT*kA*dG*dA*dG*d[5mC]*d[5mC]*dT*d[5mC]*d[5mC]*d[5mC]*d[5mC]*kA*k[5mC]*kT; antisense) [compound 798822]
5. 800074 (antisense kG*kG*kG*d[5mC]*dA*dT*dT*d[5mC]*dT*dG*dA*d[5mC]*dT*k[5mC]*k[5mC]*kT) [compound 800074]
6. 799938 (antisense k[5mC]*kT*k[5mC]*dT*dA*dA*dA*d[5mC]*d[5mC]*dA*dA*d[5mC]*dT*kT*kT*kT) [compound 799938]
7. 800015 (k[5mC]*kT*kT*dT*dA*dA*dG*dG*dT*dG*dT*dT*dG*k[5mC]*k[5mC]*k[5mC]; antisense) [compound 800015]

1: 43; 2: 40; 3: 39; 4: 56; 5: 33; 6: 17; 7: 26

###

assay-notes: Body and organ weights after oral gavage in CD-1 mice (Example 7)
Assay type: in vivo
setup-conditions: 500 mg/kg oral gavage once daily for 4 weeks, end of study
I'd be grateful if you could share measured Kidneys weight for these entries.
Answers are plain numbers, in g.

790615 (CCAATGAGAATGCTTC; 3-10-3 cEt gapmer, further chemistry not given here) [compound 790615] :: 0.64
830037 (antisense CTATTGGCTGATCTGG; 3-10-3 cEt gapmer, further chemistry not given here) [compound 830037] :: 0.69
830121 (AGAATCAAGCCCTGGC; 3-10-3 cEt gapmer, further chemistry not given here) [compound 830121] :: 0.61
798781 (CGTAAGATTCACAGCA; 3-10-3 cEt gapmer, further chemistry not given here) [compound 798781] :: 0.64
829994 (GGAGGCAGGGCCGCGA; 3-10-3 cEt gapmer, further chemistry not given here) [compound 829994] :: 0.62

Need Kidneys weight, item 830025 (antisense TTTGTAAATCGAAAGC; 3-10-3 cEt gapmer, further chemistry not given here) [compound 830025]
0.71

###

Field: % Inhibition. Provide a value for each of the substances that follow.
Tested on: human SMAD7 mRNA
assay-notes: Antisense inhibition of human SMAD7 mRNA expression in Hep3B cells by 5-10-5 MOE gapmers, single concentration, electroporation, RT-PCR (Example 1, Study 1 and 2)
Format: cell-based
setup-conditions: Study 2, electroporation with 15,000 nM antisense oligonucleotide, 5-10-5 MOE gapmers targeting SEQ ID NO: 1 and 2
Strand notation (5' to 3'): a small letter for the sugar, then the base; units joined by * are phosphorothioate-linked, units joined directly phosphodiester-linked; [ ] holds rarer units or linkages, { } end groups; capitals alone tell only the bases. e = 2'-O-(2-methoxyethyl) (MOE); [5mC] = 5-methylcytosine; d = 2'-deoxy (DNA)
Numbers only, in %.

For every item in the list below, what is its measured % Inhibition?
1. 771366 (antisense eT*eG*e[5mC]*eT*eG*dA*dT*dT*dA*dT*dT*dA*dA*dT*dG*eG*eT*e[5mC]*eT*eG) [compound 771366]
2. 771804 (antisense eG*eA*e[5mC]*eA*eG*dA*dT*dG*d[5mC]*d[5mC]*dA*dG*d[5mC]*dA*dA*eG*eG*eA*eT*e[5mC]) [compound 771804]
3. 771812 (antisense eT*eT*eA*eA*e[5mC]*d[5mC]*d[5mC]*d[5mC]*dT*dG*d[5mC]*d[5mC]*dG*dG*dA*e[5mC]*eT*eG*e[5mC]*e[5mC]) [compound 771812]
4. 771942 (antisense eG*eT*e[5mC]*eG*eG*dT*d[5mC]*dA*dG*dG*dG*d[5mC]*d[5mC]*dT*dT*eG*e[5mC]*e[5mC]*e[5mC]*eT) [compound 771942]
5. 771346 (antisense e[5mC]*eG*eT*eG*eA*dT*dT*d[5mC]*dT*d[5mC]*d[5mC]*dG*dT*dA*dT*eT*eT*eA*e[5mC]*eT) [compound 771346]
6. 771927 (antisense eG*e[5mC]*e[5mC]*e[5mC]*eA*d[5mC]*dA*dG*d[5mC]*d[5mC]*d[5mC]*dA*d[5mC]*dA*d[5mC]*eG*eA*eG*eT*e[5mC]) [compound 771927]
7. 771759 (antisense eG*e[5mC]*eA*eT*eT*dA*d[5mC]*d[5mC]*dA*dG*dT*d[5mC]*d[5mC]*d[5mC]*d[5mC]*e[5mC]*eA*eT*eT*eA) [compound 771759]

1: 0; 2: 17; 3: 26; 4: 11; 5: 22; 6: 0; 7: 26

Please look at the items below and tell me % Inhibition for each one, in order.
1. 771726 (antisense eA*eG*e[5mC]*e[5mC]*eA*dA*dA*dA*d[5mC]*d[5mC]*d[5mC]*dA*dG*dT*d[5mC]*eA*eA*eG*eT*eT) [compound 771726]
2. 771908 (antisense e[5mC]*eA*eA*eA*e[5mC]*dA*dT*d[5mC]*dA*d[5mC]*d[5mC]*dA*d[5mC]*dG*d[5mC]*e[5mC]*eT*e[5mC]*eG*e[5mC]) [compound 771908]
3. 771362 (antisense eG*eT*eA*eA*eG*dA*d[5mC]*dA*dG*dA*d[5mC]*d[5mC]*dA*d[5mC]*dA*eG*e[5mC]*eA*e[5mC]*e[5mC]) [compound 771362]
4. 771774 (antisense eG*eA*eA*eA*eA*dA*d[5mC]*dA*dG*dG*dT*dA*dG*dA*dA*eA*eT*eA*eG*eG) [compound 771774]
5. 771385 (antisense e[5mC]*eA*eG*eT*e[5mC]*dT*dG*d[5mC]*dT*dG*dT*dG*dG*dA*dT*eT*eT*eG*eA*eA) [compound 771385]
6. 771940 (antisense eT*e[5mC]*e[5mC]*eT*eG*d[5mC]*dT*dG*d[5mC]*d[5mC]*d[5mC]*d[5mC]*dA*dG*d[5mC]*eA*eG*eG*e[5mC]*eT) [compound 771940]

[19, 26, 15, 14, 25, 0]

Count: 4. Required value per item: % Inhibition.
1. 771859 (antisense e[5mC]*e[5mC]*eA*eG*eA*dA*dA*dA*dT*dG*d[5mC]*dA*dG*dA*d[5mC]*eA*eG*e[5mC]*eT*eA) [compound 771859]
2. 771879 (antisense eA*eG*eG*eA*e[5mC]*d[5mC]*d[5mC]*dA*dA*dA*dG*dG*d[5mC]*dA*dG*eA*e[5mC]*e[5mC]*e[5mC]*eT) [compound 771879]
3. 771935 (antisense eG*eG*eA*eA*eG*dG*dA*d[5mC]*dA*d[5mC]*dA*dT*dT*dG*dG*e[5mC]*eA*eT*e[5mC]*eA) [compound 771935]
4. 771894 (antisense e[5mC]*eA*eA*eA*eA*dG*dG*dG*dA*dA*dA*dG*dG*dA*dG*eG*eT*eT*eT*eG) [compound 771894]

[42, 23, 23, 17]
